TARGET_UNDER_TEST: T1, human programmed cell death protein 1 (hPD-1) C93S (aa 24-167) (Homo sapiens, UniProt Q15116, C93S)
T1 construct: made as a fusion with a TEV site and human Fc; the Fc was cut off with TEV protease; source: Expi293F, purified (Protein A, TEV cleavage of Fc, SEC; monomer fractions); not shown: Fc (human), C-terminal, cleaved
PROCEDURE_DETAILS: SPR; Carterra LSA; Fab from the ammonium sulfate precipitate of the culture supernatant immobilised on a NiHC200M chip; hPD-1 (1-1024 nM) or mPD-1-Fc (4-1024 nM) as analyte, fourfold dilution series, no regeneration; HBS-EP pH 7.4, 25 °C; medians over the spots of a construct, KD = koff/kon
CONDITION_DESCRIPTION: one partner purified
pKd: −log10 of the molar value.
Binary classification by pKd, with 8 as an inclusive lower bound for fulfilled; all other cases are not fulfilled.

Ask: Check this binder for pKd at or above 8: toripalimab Fab L.E39A (Fab, V domains shown, as the heavy chain of Sm3; light chain of Sm3 with this change; numbers count from the chain's first residue; source: Brevibacillus, culture supernatant (ammonium sulfate precipitate); not shown: 6xHis, C-terminal, kept; 6xHN, C-terminal, kept) VH: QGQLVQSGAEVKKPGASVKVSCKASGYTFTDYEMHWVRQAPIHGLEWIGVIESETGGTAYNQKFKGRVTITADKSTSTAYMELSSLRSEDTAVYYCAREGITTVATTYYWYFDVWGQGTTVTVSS VL: DVVMTQSPLSLPVTLGQPASISCRSSQSIVHSNGNTYLAWYLQKPGQSPQLLIYKVSNRFSGVPDRFSGSGSGTDFTLKISRVEAEDVGVYYCFQGSHVPLTFGQGTKLEIK
Result: not fulfilled

Ask: Check this binder for pKd at or above 8: toripalimab Fab H.T106A (Fab, V domains shown, heavy chain of Sm3 with this change; numbers count from the chain's first residue; as the light chain of Sm3; source: Brevibacillus, culture supernatant (ammonium sulfate precipitate); not shown: 6xHis, C-terminal, kept; 6xHN, C-terminal, kept) VH: QGQLVQSGAEVKKPGASVKVSCKASGYTFTDYEMHWVRQAPIHGLEWIGVIESETGGTAYNQKFKGRVTITADKSTSTAYMELSSLRSEDTAVYYCAREGITTVAATYYWYFDVWGQGTTVTVSS VL: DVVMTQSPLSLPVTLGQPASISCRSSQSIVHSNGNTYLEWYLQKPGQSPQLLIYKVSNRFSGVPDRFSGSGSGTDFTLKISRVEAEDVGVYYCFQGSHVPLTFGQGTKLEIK
Result: fulfilled

Ask: Check this binder for pKd at or above 8: toripalimab Fab L.V99Y (Fab, V domains shown, as the heavy chain of Sm3; light chain of Sm3 with this change; numbers count from the chain's first residue; source: Brevibacillus, culture supernatant (ammonium sulfate precipitate); not shown: 6xHis, C-terminal, kept; 6xHN, C-terminal, kept) VH: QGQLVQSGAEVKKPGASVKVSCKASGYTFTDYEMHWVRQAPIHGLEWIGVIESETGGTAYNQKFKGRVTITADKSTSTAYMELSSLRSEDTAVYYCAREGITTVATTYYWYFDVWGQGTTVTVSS VL: DVVMTQSPLSLPVTLGQPASISCRSSQSIVHSNGNTYLEWYLQKPGQSPQLLIYKVSNRFSGVPDRFSGSGSGTDFTLKISRVEAEDVGVYYCFQGSHYPLTFGQGTKLEIK
Result: fulfilled
